Reference for the values: ChEMBL document CHEMBL5236594

- target-of-assay: Neuronal acetylcholine receptor; alpha3/beta4 (Homo sapiens, UniProt P30926+P32297)
- Sequence (P30926 whole entry): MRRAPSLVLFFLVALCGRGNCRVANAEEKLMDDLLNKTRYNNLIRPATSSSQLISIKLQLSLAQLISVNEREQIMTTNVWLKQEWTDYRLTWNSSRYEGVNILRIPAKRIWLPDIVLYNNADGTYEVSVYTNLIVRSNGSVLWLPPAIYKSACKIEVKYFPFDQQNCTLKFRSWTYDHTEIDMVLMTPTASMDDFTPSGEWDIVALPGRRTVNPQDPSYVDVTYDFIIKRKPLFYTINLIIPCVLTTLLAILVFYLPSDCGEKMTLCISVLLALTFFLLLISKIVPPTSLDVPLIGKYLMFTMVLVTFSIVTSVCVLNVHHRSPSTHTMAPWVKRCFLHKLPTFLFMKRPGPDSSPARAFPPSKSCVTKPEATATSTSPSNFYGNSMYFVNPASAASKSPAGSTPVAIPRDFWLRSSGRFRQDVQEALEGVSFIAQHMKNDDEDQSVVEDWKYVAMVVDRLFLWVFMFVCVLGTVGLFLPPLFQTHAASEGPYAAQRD
- Sequence (P32297 whole entry): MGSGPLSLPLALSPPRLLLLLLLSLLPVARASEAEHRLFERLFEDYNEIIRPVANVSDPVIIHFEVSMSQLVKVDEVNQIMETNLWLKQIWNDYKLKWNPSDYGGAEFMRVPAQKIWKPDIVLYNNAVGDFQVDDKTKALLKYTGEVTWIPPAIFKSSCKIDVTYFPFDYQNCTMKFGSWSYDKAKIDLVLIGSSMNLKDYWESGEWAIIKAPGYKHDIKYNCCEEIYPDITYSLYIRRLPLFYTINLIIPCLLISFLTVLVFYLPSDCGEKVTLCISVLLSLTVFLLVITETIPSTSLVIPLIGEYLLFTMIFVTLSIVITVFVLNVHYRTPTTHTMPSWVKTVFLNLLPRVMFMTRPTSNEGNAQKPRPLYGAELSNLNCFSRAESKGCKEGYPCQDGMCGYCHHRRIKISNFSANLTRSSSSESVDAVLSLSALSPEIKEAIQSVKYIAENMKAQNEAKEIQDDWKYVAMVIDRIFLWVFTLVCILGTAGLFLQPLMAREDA
- experimental-protocol: Binding affinity to alpha3beta4 nAChR (unknown origin) assessed as dissociation constant
pKi: −log10 of the molar value.
parameter-measured: pKi

compound="c1cncc(C[C@H]2[C@H](Oc3cnc(-c4ccc5[nH]ccc5c4)cn3)C3CCN2CC3)c1 (relative stereo)" target_of_assay="Neuronal acetylcholine receptor; alpha3/beta4 (Homo sapiens, UniProt P30926+P32297)" reported_measurement=6.40
compound="c1cncc(C[C@@H]2[C@@H](Oc3ccc4ccccc4n3)C3CCN2CC3)c1 (relative stereo)" target_of_assay="Neuronal acetylcholine receptor; alpha3/beta4 (Homo sapiens, UniProt P30926+P32297)" reported_measurement=6.10
compound="c1cncc(C[C@H]2[C@H](Oc3ccc(-c4ccc5[nH]ccc5c4)nn3)C3CCN2CC3)c1 (relative stereo)" target_of_assay="Neuronal acetylcholine receptor; alpha3/beta4 (Homo sapiens, UniProt P30926+P32297)" reported_measurement=6.14
compound="c1cncc(C[C@@H]2[C@@H](Oc3cc4ccccc4cn3)C3CCN2CC3)c1 (relative stereo)" target_of_assay="Neuronal acetylcholine receptor; alpha3/beta4 (Homo sapiens, UniProt P30926+P32297)" reported_measurement=5.67
